Measured values drawn from paper PMC3242417 for this set.

Experiment: in vitro
Details: human

molecule: COC(=O)/C=C/c1cn([C@@H]2O[C@H](CO)[C@@H](O)[C@@]2(C)F)c2ncnc(N)c12 [Compound 11]
CC50 at 96 h: > 10 µM
//
molecule: C[C@@]1(F)[C@H](O)[C@@H](CO)O[C@@H]1n1cc(I)c2c(N)nc(N)nc21 [Compound 4g]
CC50 at 96 h: > 10 µM
//
molecule: CCc1cn([C@@H]2O[C@H](CO)[C@@H](O)[C@@]2(C)F)c2ncnc(N)c12 [Compound 9]
CC50 at 96 h: > 10 µM

====

Below is a list of entries, each paired with its recorded CC50 at 96 h value.
Assay: in vitro
Conditions: human
readout kind: CC50 at 96 h

structure as smiles: C[C@@]1(F)[C@H](O)[C@@H](CO)O[C@@H]1n1ccc2c(N)nc(N)nc21
result: > 10 µM
//
structure as smiles: C[C@@]1(F)[C@H](O)[C@@H](CO)O[C@@H]1n1cc(Cl)c2c(N)ncnc21
result: > 10 µM
//
structure as smiles: C#Cc1cn([C@@H]2O[C@H](CO)[C@@H](O)[C@@]2(C)F)c2nc(N)nc(N)c12
result: > 10 µM
//
structure as smiles: C[C@@]1(F)[C@H](O)[C@@H](CO)O[C@H]1n1cc(F)c2c(N)ncnc21
result: > 10 µM
//
structure as smiles: C[C@@]1(F)[C@H](O)[C@@H](CO)O[C@@H]1n1ccc2c(N)ncnc21
result: > 10 µM
//
structure as smiles: C#Cc1cn([C@@H]2O[C@H](CO)[C@@H](O)[C@@]2(C)F)c2ncnc(N)c12
result: > 10 µM
//
structure as smiles: CNc1ncnc2c1c(F)cn2[C@H]1O[C@H](CO)[C@@H](O)[C@@]1(C)F
result: > 10 µM
//
structure as smiles: COc1ncnc2c1ccn2[C@@H]1O[C@H](CO)[C@@H](O)[C@@]1(C)F
result: > 10 µM
